Each entry below carries its recorded GI50.
# Tested on: 786-0 renal
# RUN_DESCRIPTION: NCI tumour cell line growth inhibition, 48 h

// returns reported GI50 for input Cc1[nH]c(N=Nc2ccccc2)nc1N=Nc1ccccc1
2750 nM

// returns reported GI50 for input C=C1C(=O)O[C@H]2[C@H]1CC/C(COC(=O)/C=C\C(=O)NCc1ccc(Cn3c(=O)sn(-c4ccc(C#N)cc4)c3=O)cc1)=C\CC[C@@]1(C)O[C@@H]21
727 nM

// returns reported GI50 for input CC(C)(C)OC(=O)N(CCCN(CCn1c2c(c3ccccc3c1=O)C(=O)c1ccccc1-2)C(=O)OC(C)(C)C)CCn1c2c(c3ccccc3c1=O)C(=O)c1ccccc1-2
16500 nM

// returns reported GI50 for input CC(C)CSc1nc(Nc2ccccc2)c(C#N)c(-c2ccc(F)cc2)n1
1900 nM

----------
# System: NCI-H522 lung
# RUN_DESCRIPTION: NCI tumour cell line growth inhibition, 48 h
READOUT_LABEL: TGI

// returns reported TGI for input CCOC(=O)CC(NC(=O)c1nc[nH]c1[N+](=O)[O-])C(=O)OCC (stereo unspecified)
> 100 µM

// returns reported TGI for input COC(=O)c1ccc2c(c1)CC1(C2)Cc2cc3c(cc2C1=O)CCC3 (stereo unspecified)
> 100 µM

// returns reported TGI for input CCOC(=O)[C@H]1Nc2ccc(C)cc2C2c3ccccc3CC21 (stereo partly specified)
> 100 µM

// returns reported TGI for input CC(=O)OC1CC2OC(Cc3ccccc32)O1 (stereo unspecified)
> 100 µM

// returns reported TGI for input CCCN=C(NC(=O)c1ccc(Cl)cc1)SC
> 100 µM

// returns reported TGI for input NCC(=O)NC(CCCC(NC(=O)CN)P(=O)(O)O)P(=O)(O)O (stereo unspecified)
> 100 µM

----------
# System: SK-MEL-2 melanoma
# RUN_DESCRIPTION: NCI tumour cell line growth inhibition, 48 h
READOUT_LABEL: TGI

Check out these entries, answers already filled in.
In [3]: df
Out[3]:
                                   compound    result
0  COc1cc(-c2c(C#N)c(N)n3c(nc4ccccc43)c2C#N)cc(Br)c1OC  > 100 µM
1  CCOc1cc(NC(C)=O)ccc1C(=O)NN1C(=O)C(Oc2ccccc2)C1c1ccc(O)c(OC)c1 (stereo not drawn)   81.2 µM
2  O=C(C[C@@H](C(=O)NCc1cccc(C(F)(F)F)c1)N1C(=O)[C@@H](N2C(=O)OC[C@@H]2c2ccccc2)[C@H]1/C=C/c1ccccc1)NC1CCN(Cc2ccccc2)CC1   30.6 µM
3  CC(=O)O[C@@H]1C=C(C)[C@H](CBr)O[C@@]2(C)CC[C@H](Br)C(C)(C)[C@H]12  > 100 µM
4  COc1ccc(C2CC(=O)c3c(O)c(OC)c(OC)c(OC)c3O2)c(O)c1 (stereo not drawn)   23.4 µM

// returns reported TGI for input C1=C2C3=[N+](CCCC3)CC2Cc2ccsc21 (stereo not drawn)
> 100 µM

// returns reported TGI for input COc1ccc2c(c1)OCc1c-2oc2ccccc2c1=O
> 100 µM

// returns reported TGI for input COc1ccccc1N1C(=O)/C(=C\c2cccc(Oc3ccccc3)c2)SC1c1ccccc1 (stereo not drawn)
> 100 µM
